- protocol.text: photocatalytic hydrogen evolution rate (per 5 mg catalyst); higher = more photocatalytic H2 evolution; extreme values may be limits of the assay;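 also: aromatic molecules in triethylamine/methanol/water with Pt photoreduced in situ, irradiated 3 h under a 1 sun AM 1.5G solar simulator (350–1000 nm), H2 quantified by headspace gas chromatography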;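 also: listed molecule itself used as the photocatalyst at 5 mg per vial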
- protocol.conditions: catalyst mass (mg): 5; Pt cocatalyst (wt%): 3; sacrificial medium: triethylamine/methanol/water 1:1:1
parameter: photocatalytic hydrogen evolution rate (µmol/h)
Your answer should be a plain number; it is taken to be in µmol/h.

Study these solved cases before continuing.
* c1ccc2c(c1)cc1ccc3cccc4ccc2c1c34 | 0.00851
* O=C1C(O)=C(O)C(=O)C(O)=C1O | 0

Entry "Nc1ccc(N)c(S(=O)(=O)O)c1" : reported photocatalytic hydrogen evolution rate = ? 0

Entry "Fc1c(F)c(F)c(-c2c(F)c(F)c(F)c(F)c2F)c(F)c1F" : reported photocatalytic hydrogen evolution rate = ? 0

Entry "O=Cc1c(O)c(C=O)c(O)c(C=O)c1O" : reported photocatalytic hydrogen evolution rate = ? 1.03

Entry "O=C(O)c1cc(Br)c(C(=O)O)cc1Br" : reported photocatalytic hydrogen evolution rate = ? 0

Entry "COc1cc(C#N)c(C#N)cc1OC" : reported photocatalytic hydrogen evolution rate = ? 0

Entry "O=Cc1ccc(O)cc1" : reported photocatalytic hydrogen evolution rate = ? 0.00783

---

- protocol.text: photocatalytic hydrogen evolution rate (per 5 mg catalyst); higher = more photocatalytic H2 evolution; extreme values may be limits of the assay
- protocol.conditions: catalyst mass (mg): 5; Pt cocatalyst (wt%): 3; sacrificial medium: triethylamine/methanol/water 1:1:1
Catalogue of photocatalytic hydrogen evolution rate readings, one per entry.
Your answer should be a plain number; it is taken to be in µmol/h.

Study these solved cases before continuing.
• c1ccc(-c2nc(-c3ccccc3)nc(-c3ccc(-c4ccc(-c5nc(-c6ccccc6)nc(-c6ccccc6)n5)cc4)cc3)n2)cc1 = 0
• Oc1cccc2cccnc12 = 0
• N#Cc1ccc(-c2cccc(N)c2)cc1 = 0
• c1cc2ccc3cccc4ccc(c1)c2c34 = 0.198
• O=C1c2cc(Br)ccc2-c2ccc(Br)cc21 = 0.214
• COC(=O)c1cc(C(=O)OC)c(C(=O)OC)cc1C(=O)OC = 0
• c1ncncn1 = 0
• N#CCC(=O)c1ccc(Br)cc1 = 0

Entry "N#CCc1ccccc1CC#N" : reported photocatalytic hydrogen evolution rate = ? 0

Entry "Cc1cc(C)cc(-c2cc(C)cc(C)c2)c1" : reported photocatalytic hydrogen evolution rate = ? 0

Entry "COc1ccc(I)cc1" : reported photocatalytic hydrogen evolution rate = ? 0

---

- protocol.text: photocatalytic hydrogen evolution rate (per 5 mg catalyst); higher = more photocatalytic H2 evolution; extreme values may be limits of the assay
- protocol.conditions: catalyst mass (mg): 5; Pt cocatalyst (wt%): 3; sacrificial medium: triethylamine/methanol/water 1:1:1
parameter: photocatalytic hydrogen evolution rate (µmol/h)
Your answer should be a plain number; it is taken to be in µmol/h.

Study these solved cases before continuing.
* O=Cc1c(O)cc(O)cc1O | 0
* C#Cc1ccc(C=O)cc1 | 0
* Nc1ccc(C(c2ccc(N)cc2)(c2ccc(N)cc2)c2ccc(N)cc2)cc1 | 0
* Brc1cncc(Br)c1 | 0
* Brc1ccc(C#CC#Cc2ccc(Br)cc2)cc1 | 0
* O=C1OC2(c3ccccc31)c1cc(I)c(O)c(I)c1Oc1c2cc(I)c(O)c1I | 28.3
* Oc1cc2c3cc(O)c(O)cc3c3cc(O)c(O)cc3c2cc1O | 0.155
* c1ccc2[nH]ccc2c1 | 0
* c1ccc(-c2cccc(-c3ccccn3)n2)nc1 | 0.17
* c1ccc(N=Nc2ccccc2)cc1 | 0

Entry Brc1ccc(OCC2CCCCO2)c(Br)c1 (stereo not given) : reported photocatalytic hydrogen evolution rate = ? 0

Entry "O=C1OC2(c3ccc(O)cc3Oc3cc(O)ccc32)c2ccccc21" : reported photocatalytic hydrogen evolution rate = ? 20.2

Entry "N#Cc1ccc(-c2ccc(N)cc2)cc1" : reported photocatalytic hydrogen evolution rate = ? 0

Entry "COc1ccc(OC)cc1" : reported photocatalytic hydrogen evolution rate = ? 0

Entry "COC(=O)c1ccc(-c2ccc(C(=O)OC)cc2)cc1" : reported photocatalytic hydrogen evolution rate = ? 0.00435

Entry "N#Cc1cc(Br)cc(Br)c1O" : reported photocatalytic hydrogen evolution rate = ? 0.31

Entry "N#Cc1c(F)c(F)c(F)c(F)c1F" : reported photocatalytic hydrogen evolution rate = ? 0.0353

Entry "N#Cc1ccc(C#N)c(OC(F)(F)F)c1" : reported photocatalytic hydrogen evolution rate = ? 0.153

Entry "O=Cc1cccc(C=O)c1" : reported photocatalytic hydrogen evolution rate = ? 1.65

Entry "O=Cc1cc(O)c(O)c(O)c1" : reported photocatalytic hydrogen evolution rate = ? 0

Entry "c1cc(-c2nc(-c3ccncc3)nc(-c3ccncc3)n2)ccn1" : reported photocatalytic hydrogen evolution rate = ? 0

Entry "Nc1ccc(N)c2c1C(=O)c1c(N)ccc(N)c1C2=O" : reported photocatalytic hydrogen evolution rate = ? 0

Entry "N#Cc1ccc(-c2ccc(C#N)cc2)cc1" : reported photocatalytic hydrogen evolution rate = ? 0

Entry "COc1c(Br)cc(Br)cc1Br" : reported photocatalytic hydrogen evolution rate = ? 0

Entry "N#Cc1nccnc1C#N" : reported photocatalytic hydrogen evolution rate = ? 0

Entry "Cn1cc(Br)nc(Br)c1=O" : reported photocatalytic hydrogen evolution rate = ? 0

Entry "c1ccc(-c2ccc(-c3ccc(-c4ccc(-c5ccc(-c6ccccc6)cc5)cc4)cc3)cc2)cc1" : reported photocatalytic hydrogen evolution rate = ? 0

Entry "Nc1cccc(N)c1" : reported photocatalytic hydrogen evolution rate = ? 0
